System: Human colon carcinoma HCT116 cells
ASSAY PROTOCOL: Cytotoxicity on HCT116 tumor cell line
Type: cell-based
MEASUREMENT KIND: IC50 (µM)
Output spec: scalar in µM, unitless text.

## Input Requested read-out: IC50. Entry: CC1=CC[C@H](C(C)C)[C@H]2C[C@H](OC(=O)C(C)(C)C)[C@@H](O)C=CC[C@@H](OC(=O)C=Cc3cn(C)cn3)C[C@@H]12 [Example 34]
## Output 4

----------
// reported ED90 for each item listed
SYSTEM NAME: Pig brain tubulin (Sus scrofa, UniProt P02554)
Construct: Pig brain tubulin was prepared by two cycles of assembly and disassembly; from tissue; host or cells: pig brain
Sequence (P02554 whole entry): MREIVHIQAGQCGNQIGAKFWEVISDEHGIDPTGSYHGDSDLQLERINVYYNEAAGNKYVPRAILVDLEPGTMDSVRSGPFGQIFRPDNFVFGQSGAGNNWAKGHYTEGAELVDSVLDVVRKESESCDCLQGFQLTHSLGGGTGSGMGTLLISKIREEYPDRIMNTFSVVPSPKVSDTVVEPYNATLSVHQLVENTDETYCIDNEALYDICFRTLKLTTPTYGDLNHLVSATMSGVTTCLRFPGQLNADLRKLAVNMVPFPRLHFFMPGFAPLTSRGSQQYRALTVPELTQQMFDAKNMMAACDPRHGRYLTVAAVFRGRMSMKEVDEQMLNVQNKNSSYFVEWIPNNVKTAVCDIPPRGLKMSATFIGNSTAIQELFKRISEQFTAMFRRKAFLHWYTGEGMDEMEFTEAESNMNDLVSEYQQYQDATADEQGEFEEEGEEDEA
Sequence (P02550 whole entry partner): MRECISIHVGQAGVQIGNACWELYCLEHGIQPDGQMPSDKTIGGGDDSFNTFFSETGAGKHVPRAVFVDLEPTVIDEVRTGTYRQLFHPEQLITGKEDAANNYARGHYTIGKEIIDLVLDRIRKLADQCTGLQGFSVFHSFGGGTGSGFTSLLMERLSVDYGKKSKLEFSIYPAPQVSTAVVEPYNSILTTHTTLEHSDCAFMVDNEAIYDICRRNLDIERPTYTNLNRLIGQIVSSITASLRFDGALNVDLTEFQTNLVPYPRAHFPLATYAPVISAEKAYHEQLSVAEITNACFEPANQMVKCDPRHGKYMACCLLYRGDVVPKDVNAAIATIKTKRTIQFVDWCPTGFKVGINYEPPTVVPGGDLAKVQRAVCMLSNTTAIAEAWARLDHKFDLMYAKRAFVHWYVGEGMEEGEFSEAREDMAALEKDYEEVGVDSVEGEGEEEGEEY
ASSAY PROTOCOL: Microtubule assembly and disassembly assay (tubulin polymerizing activity)
Type: biochemical
ASSAY SETUP: effective dose that induces 90% tubulin polymerisation; 0.5 mg/ml tubulin, 37° C., turbidity at 340 nm
I only need the number, in nM, no unit after it.

>>> df
                            chemical_smiles                               system_name  value_observed
0  C=C1C/C=C\C[C@@H](OC(=O)/C=C/c2cn(C)cn2)C[C@H]2C(C)=CC[C@H](C(C)C)[C@H]2C1  Pig brain tubulin (Sus scrofa, UniProt P02554)           16000
1  CC1=CC[C@H](C(C)C)[C@H]2CC(=O)C/C=C\C[C@@H](OC(=O)/C=C/c3cn(C)cn3)C[C@@H]12  Pig brain tubulin (Sus scrofa, UniProt P02554)            1200
2  CC(=O)O[C@H]1C=CC[C@@H](OC(=O)/C=C/c2cn(C)cn2)C[C@H]2C(C)=CC[C@H](C(C)C)[C@H]2C[C@@H]1OC(=O)C(C)(C)C  Pig brain tubulin (Sus scrofa, UniProt P02554)            1700
3  CC(=O)O[C@@H]1C/C=C\C[C@@H](OC(=O)/C=C/c2cn(C)cn2)C[C@H]2C(C)=CC[C@H](C(C)C)[C@H]2C1  Pig brain tubulin (Sus scrofa, UniProt P02554)           10000

## Input Item "CC1=CC[C@H](C(C)C)[C@H]2C[C@H](OC(=O)C(C)(C)C)[C@@H](O)C=CC[C@@H](OC(=O)C=Cc3cn(C)cn3)C[C@@H]12" has what recorded ED90?
## Output 1800
